molecular target: ATP-dependent translocase ABCB1 (Homo sapiens, UniProt P08183); assay: Inhibition of MDR1-mediated efflux-pump activity in mouse L5178Y cells expressing human MDR1 assessed as fluorescence activity ratio at 20 uM preincubated for 10 mins followed by rhodamine-123 addition measured after 20 mins by flow cytometry; assay type: cell-based
Sequence (P08183 whole entry): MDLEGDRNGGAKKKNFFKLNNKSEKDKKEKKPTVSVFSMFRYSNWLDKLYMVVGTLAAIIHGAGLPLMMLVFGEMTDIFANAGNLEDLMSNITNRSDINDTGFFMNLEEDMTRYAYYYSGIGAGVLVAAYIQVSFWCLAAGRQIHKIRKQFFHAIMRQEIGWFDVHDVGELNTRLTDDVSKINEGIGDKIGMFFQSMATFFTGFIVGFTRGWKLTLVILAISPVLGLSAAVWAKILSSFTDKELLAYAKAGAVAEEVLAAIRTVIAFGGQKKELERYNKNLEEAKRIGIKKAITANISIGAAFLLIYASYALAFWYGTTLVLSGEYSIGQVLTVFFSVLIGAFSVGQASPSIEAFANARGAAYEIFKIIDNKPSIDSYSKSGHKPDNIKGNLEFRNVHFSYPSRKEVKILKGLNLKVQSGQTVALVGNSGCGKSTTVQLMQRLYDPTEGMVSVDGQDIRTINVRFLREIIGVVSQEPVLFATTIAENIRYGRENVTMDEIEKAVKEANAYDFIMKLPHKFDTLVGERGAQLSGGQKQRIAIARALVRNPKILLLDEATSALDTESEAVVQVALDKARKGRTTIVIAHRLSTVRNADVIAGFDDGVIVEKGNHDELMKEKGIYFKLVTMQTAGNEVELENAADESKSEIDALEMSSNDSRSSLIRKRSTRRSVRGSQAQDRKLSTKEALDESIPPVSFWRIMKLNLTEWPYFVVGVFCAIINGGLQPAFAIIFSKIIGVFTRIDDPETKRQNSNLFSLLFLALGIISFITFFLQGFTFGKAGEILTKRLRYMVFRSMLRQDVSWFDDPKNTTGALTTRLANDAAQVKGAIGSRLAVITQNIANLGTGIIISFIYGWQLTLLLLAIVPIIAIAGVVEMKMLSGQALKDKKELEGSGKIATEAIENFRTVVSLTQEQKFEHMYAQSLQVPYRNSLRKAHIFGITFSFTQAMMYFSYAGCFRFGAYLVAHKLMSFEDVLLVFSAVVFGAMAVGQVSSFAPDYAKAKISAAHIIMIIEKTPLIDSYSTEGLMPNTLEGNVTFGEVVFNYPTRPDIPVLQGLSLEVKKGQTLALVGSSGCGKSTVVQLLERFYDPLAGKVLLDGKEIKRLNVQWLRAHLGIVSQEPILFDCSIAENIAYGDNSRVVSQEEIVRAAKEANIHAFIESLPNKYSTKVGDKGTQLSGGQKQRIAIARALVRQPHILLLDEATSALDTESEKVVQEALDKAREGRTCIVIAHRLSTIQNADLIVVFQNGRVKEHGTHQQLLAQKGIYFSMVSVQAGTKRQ
MEASURED_PARAMETER: Ratio

{"ENTRY_SMILES": "CC(C)=CC(=O)C[C@@H](C)[C@H]1CC[C@@]2(C)[C@@H]3C(=O)C=C4[C@@H](CC[C@H](O)[C@]4(C)CO)[C@]3(C)CC[C@]12C", "RECORDED_RESULT": 198.9}
{"ENTRY_SMILES": "CC(=O)O[C@H]1C=C2[C@@H](CC[C@H](OC(C)=O)C2(C)C)[C@]2(C)CC[C@]3(C)[C@@H]([C@H](C)C[C@H](C=C(C)C)OC(C)=O)CC[C@@]3(C)[C@H]12", "RECORDED_RESULT": 15}
{"ENTRY_SMILES": "CO[C@H]1C=C2[C@@H](CC[C@H](O)C2(C)C)[C@]2(C)C[C@@H](O)[C@]3(C)[C@@H]([C@H](C)C[C@@H](O)C=C(C)C)CC[C@@]3(C)[C@H]12", "RECORDED_RESULT": 19.8}

====

target: UniProt P08183; assay: Inhibition of MDR1-mediated efflux-pump activity in mouse L5178Y cells expressing human MDR1 assessed as forward scattered light at 20 uM preincubated for 10 mins followed by rhodamine-123 addition measured after 20 mins by flow cytometry (reference value: 455.7 to 509.9); type: cell-based

{"MOLECULE": "CO[C@H]1C=C2[C@@H](CC[C@H](O)C2(C)C)[C@]2(C)CC[C@]3(C)[C@@H]([C@H](C)C[C@H](C=C(C)C)OC(=O)c4ccc([N+](=O)[O-])cc4)CC[C@@]3(C)[C@H]12 [KARAVOATE I]", "Activity": 534.1}
{"MOLECULE": "CCCC(=O)O[C@H]1CC[C@@H]2C(=C[C@H](OC)[C@@H]3[C@@]2(C)CC[C@]2(C)[C@@H]([C@H](C)C[C@H](C=C(C)C)OC(=O)CCC)CC[C@@]32C)C1(C)C [KARAVOATE F]", "Activity": 541}
{"MOLECULE": "CO[C@H]1C=C2[C@@H](CC[C@H](OC(=O)c3ccc([N+](=O)[O-])cc3)C2(C)C)[C@]2(C)CC[C@]3(C)[C@@H]([C@H](C)C[C@H](C=C(C)C)OC(=O)c4ccc([N+](=O)[O-])cc4)CC[C@@]3(C)[C@H]12 [KARAVOATE J]", "Activity": 537.3}
{"MOLECULE": "C[C@H](C/C=C/C(C)(C)O)[C@H]1CC[C@@]2(C)[C@@H]3[C@@H](O)C=C4[C@@H](CC[C@H](O)C4(C)C)[C@]3(C)C[C@@H](O)[C@]12C [CUCURBALSAMINOL A]", "Activity": 429}

====

molecular target: ATP-dependent translocase ABCB1 (Homo sapiens, UniProt P08183); test: Inhibition of MDR1-mediated efflux-pump activity in mouse L5178Y cells expressing human MDR1 assessed as mean fluorescence intensity at 2 uM preincubated for 10 mins followed by rhodamine-123 addition measured after 20 mins by flow cytometry (reference value: 7.1 to 18.6); assay type: cell-based
Each entry below carries its reported Flu intensity.
MEASURED_PARAMETER: Flu intensity

{"MOLECULE": "CC(=O)O[C@H]1C=C2[C@@H](CC[C@H](OC(C)=O)C2(C)C)[C@]2(C)CC[C@]3(C)[C@@H]([C@H](C)C[C@H](C=C(C)C)OC(C)=O)CC[C@@]3(C)[C@H]12 [TRIACETYLBALSAMINOL F]", "TGT": "ATP-dependent translocase ABCB1 (Homo sapiens, UniProt P08183)", "RECORDED_RESULT": 20}
{"MOLECULE": "CO[C@H]1C=C2[C@@H](CC[C@H](O)C2(C)C)[C@]2(C)C[C@@H](O)[C@]3(C)[C@@H]([C@H](C)C/C=C/C(C)(C)O)CC[C@@]3(C)[C@H]12", "TGT": "ATP-dependent translocase ABCB1 (Homo sapiens, UniProt P08183)", "RECORDED_RESULT": 27.2}
{"MOLECULE": "CO[C@H]1C=C2[C@@H](CC[C@H](O)C2(C)C)[C@]2(C)CC[C@]3(C)[C@@H]([C@H](C)C[C@H](C=C(C)C)OC(=O)CCC(=O)O)CC[C@@]3(C)[C@H]12", "TGT": "ATP-dependent translocase ABCB1 (Homo sapiens, UniProt P08183)", "RECORDED_RESULT": 7.5}
{"MOLECULE": "CO[C@H]1C=C2[C@@H](CC[C@H](OC(=O)c3ccc(Cl)cc3)C2(C)C)[C@]2(C)CC[C@]3(C)[C@@H]([C@H](C)C[C@H](C=C(C)C)OC(=O)c4ccc(Cl)cc4)CC[C@@]3(C)[C@H]12 [KARAVOATE L]", "TGT": "ATP-dependent translocase ABCB1 (Homo sapiens, UniProt P08183)", "RECORDED_RESULT": 8.1}
{"MOLECULE": "CO[C@H]1C=C2[C@@H](CC[C@H](O)C2(C)C)[C@]2(C)C[C@@H](O)[C@]3(C)[C@@H]([C@H](C)C[C@@H](O)C=C(C)C)CC[C@@]3(C)[C@H]12 [CUCURBALSAMINOL C]", "TGT": "ATP-dependent translocase ABCB1 (Homo sapiens, UniProt P08183)", "RECORDED_RESULT": 31.6}
{"MOLECULE": "CC(C)=C[C@H](O)C[C@@H](C)[C@H]1CC[C@@]2(C)[C@@H]3C=C[C@@]45OC[C@]3(CC[C@]12C)[C@@H]4CC[C@H](O)C5(C)C [KARAVILAGENIN E]", "TGT": "ATP-dependent translocase ABCB1 (Homo sapiens, UniProt P08183)", "RECORDED_RESULT": 38.4}
{"MOLECULE": "C=C(C)[C@@H](O)[C@H](O)C[C@@H](C)[C@H]1CC[C@@]2(C)[C@@H]3[C@@H](O)C=C4[C@@H](CC[C@H](O)[C@]4(C)CO)[C@]3(C)CC[C@]12C [BALSAMINAPENTAOL A]", "TGT": "ATP-dependent translocase ABCB1 (Homo sapiens, UniProt P08183)", "RECORDED_RESULT": 8.8}
